These entries and their values trace back to patent US20240352133A1.

Target: Recombinant human his-tagged IGF 1R extracellular domain protein (human) (UniProt P08069)
Assay: SPR, captured antibody, dissociation at pH 6
Parameter threshold = 0.0003 s⁻¹. Response is YES when koff meets or exceeds it, else NO.

Previously resolved entries follow.
[in] Please check the record VRDN-03045 (antibody, V domains shown) VH: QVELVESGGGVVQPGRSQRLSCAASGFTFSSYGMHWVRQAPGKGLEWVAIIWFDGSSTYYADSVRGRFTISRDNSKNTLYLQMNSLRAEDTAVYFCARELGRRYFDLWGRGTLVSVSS VL: EIVLTQSPATLSLSPGERATLSCRASQSVSHYLAWYQQKPGQAPRLLIYDASKRATGIPARFSGSGSGTDFTLTISSLEPEDFAVYYCQQRSKWPPWTFGQGTKVESK and state if its koff is at or above 0.0003 s⁻¹.
[out] NO

[in] Quick check, koff >= 0.0003 s⁻¹? VRDN-03107 (antibody, V domains shown) VH: QVQLVESGGGVVQPGRSLRLSCAASGFTFSSYSMHWVRQAPGKGLEWVAIIWFDGSSKYYADSVKGRFTISRDNSKNTLYLQMNSLRAEDTAVYYCARELGRRYFDIWGRGTLVTVSS VL: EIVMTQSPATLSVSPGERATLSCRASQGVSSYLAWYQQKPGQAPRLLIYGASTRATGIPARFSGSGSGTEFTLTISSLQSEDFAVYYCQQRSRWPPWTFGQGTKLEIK
[out] YES

[in] Quick check: does VRDN-03055 (antibody, V domains shown) VH: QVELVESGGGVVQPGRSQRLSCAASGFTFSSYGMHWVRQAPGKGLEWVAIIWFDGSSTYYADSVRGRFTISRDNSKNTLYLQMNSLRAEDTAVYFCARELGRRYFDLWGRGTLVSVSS VL: EIVLTQSPATLSLSPGERATLSCRASQSVSSYLAWYQQKPGQAPRLLIYDASKRAHGIPARFSGSGSGTDFTLTISSLEPEDFAVYYCQQRSKWPPWTFGQGTKVESK have koff greater than or equal to 0.0003 s⁻¹?
[out] NO

[in] Hello, I need to know if VRDN-03111 (antibody, V domains shown) VH: QVQLVESGGGVVQPGRSLRLSCAASGFTFSDYTMHWVRQAPGKGLEWVAIIWFDGSSKYYVDSVKGRFTISRDNSKNTLYLQMNSLRAEDTAVYYCARELGRRYFDIWGRGTLVTVSS VL: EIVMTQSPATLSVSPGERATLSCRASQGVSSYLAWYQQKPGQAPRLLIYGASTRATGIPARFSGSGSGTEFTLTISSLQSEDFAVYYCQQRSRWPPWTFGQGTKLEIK has measured koff not below 0.0003 s⁻¹. Thanks!
[out] YES

// next entry
[in] Hi, just wondering whether VRDN-03102 (antibody, V domains shown) VH: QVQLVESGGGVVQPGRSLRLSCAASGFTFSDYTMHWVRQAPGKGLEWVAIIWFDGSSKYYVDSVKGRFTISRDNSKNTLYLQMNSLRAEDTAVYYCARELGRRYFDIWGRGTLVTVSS VL: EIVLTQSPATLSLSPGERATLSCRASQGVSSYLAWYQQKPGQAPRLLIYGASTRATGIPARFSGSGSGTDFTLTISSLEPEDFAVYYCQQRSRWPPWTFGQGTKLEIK shows koff of 0.0003 s⁻¹ or higher.
[out] YES
